The variants listed here are annotated with their protein stability index.
B1: ZC3H15 (parent)
chain: ENLFTGEDLDELEEELNTLDLEE

Variants of: B1
Test: protein stability index of a GFP-peptide fusion (GPS, HEK-293T) (PSI 1-6); higher = more stable;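 note: lentivirally expressed fusions sorted by FACS into six bins by GFP to DsRed ratio, PSI derived from sequencing read proportions per bin multiplied by bin number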
Details: c terminus: native
Measured parameter: protein stability index

>  <Seq text>
ENLFTGEDLDELEEELNTLRLEE [D20R]

>  <Measured parameter>
protein stability index

>  <Reported>
5.48

$$$$
>  <Seq text>
ENLFTGEDLDCLEEELNTLDLEE [E11C]

>  <Measured parameter>
protein stability index

>  <Reported>
4.52

$$$$
>  <Seq text>
INLFTGEDLDELEEELNTLDLEE [E1I]

>  <Measured parameter>
protein stability index

>  <Reported>
3.24

$$$$
>  <Seq text>
ENLFTGEDLDELEEELNTLDLEK [E23K]

>  <Measured parameter>
protein stability index

>  <Reported>
5.61

$$$$
>  <Seq text>
ENLFTGEDFDELEEELNTLDLEE [L9F]

>  <Measured parameter>
protein stability index

>  <Reported>
3.48

$$$$
>  <Seq text>
ENLFTGEDLDELEEELNTLDLME [E22M]

>  <Measured parameter>
protein stability index

>  <Reported>
5.37

$$$$
>  <Seq text>
ENLFTGEDLDELAEELNTLDLEE [E13A]

>  <Measured parameter>
protein stability index

>  <Reported>
5.59

$$$$
>  <Seq text>
ENKFTGEDLDELEEELNTLDLEE [L3K]

>  <Measured parameter>
protein stability index

>  <Reported>
4.06

$$$$
>  <Seq text>
PNLFTGEDLDELEEELNTLDLEE [E1P]

>  <Measured parameter>
protein stability index

>  <Reported>
4.12

$$$$
>  <Seq text>
ENLFTGEDLDELEEELNTWDLEE [L19W]

>  <Measured parameter>
protein stability index

>  <Reported>
1.11

$$$$
>  <Seq text>
ENLFTGEDLDELEEELSTLDLEE [N17S]

>  <Measured parameter>
protein stability index

>  <Reported>
4.45

$$$$
>  <Seq text>
ENLFTGEDLGELEEELNTLDLEE [D10G]

>  <Measured parameter>
protein stability index

>  <Reported>
4.73

$$$$
>  <Seq text>
ENQFTGEDLDELEEELNTLDLEE [L3Q]

>  <Measured parameter>
protein stability index

>  <Reported>
4.62

$$$$
>  <Seq text>
ENLFTGEDLDELEAELNTLDLEE [E14A]

>  <Measured parameter>
protein stability index

>  <Reported>
5.01

$$$$
>  <Seq text>
ENLFTGEDLDELEEGLNTLDLEE [E15G]

>  <Measured parameter>
protein stability index

>  <Reported>
5.2

$$$$
>  <Seq text>
ENGFTGEDLDELEEELNTLDLEE [L3G]

>  <Measured parameter>
protein stability index

>  <Reported>
4.81

$$$$
>  <Seq text>
ENLFTGEDDDELEEELNTLDLEE [L9D]

>  <Measured parameter>
protein stability index

>  <Reported>
3.87

$$$$
>  <Seq text>
ENYFTGEDLDELEEELNTLDLEE [L3Y]

>  <Measured parameter>
protein stability index

>  <Reported>
3.6

$$$$
>  <Seq text>
ENLFTGEDLDELEEELNNLDLEE [T18N]

>  <Measured parameter>
protein stability index

>  <Reported>
5.31

$$$$
>  <Seq text>
ENLFTGEDLDELEEKLNTLDLEE [E15K]

>  <Measured parameter>
protein stability index

>  <Reported>
5.54

$$$$
>  <Seq text>
ENLFPGEDLDELEEELNTLDLEE [T5P]

>  <Measured parameter>
protein stability index

>  <Reported>
4.66

$$$$
>  <Seq text>
ENLFTGEELDELEEELNTLDLEE [D8E]

>  <Measured parameter>
protein stability index

>  <Reported>
4.58

$$$$

All values here come from the supplement of paper PMC10567573.
